Data provenance: paper PMC6237600

molecular target: c-met receptor tyrosine kinase (native, on MM cell surface) (Homo sapiens) (UniProt P08581); test: flow cytometry cell binding; details: MM.1S cells; library signal subtracted; 5 mM MgCl2; 1x PBS, 4.5 g/L glucose, 5 mM MgCl2, 0.1 mg/mL yeast tRNA, 1 mg/mL BSA, 4 C, 30 min; 3e5 cells in 200 uL; pH not stated
Sequence (P08581 25-1390): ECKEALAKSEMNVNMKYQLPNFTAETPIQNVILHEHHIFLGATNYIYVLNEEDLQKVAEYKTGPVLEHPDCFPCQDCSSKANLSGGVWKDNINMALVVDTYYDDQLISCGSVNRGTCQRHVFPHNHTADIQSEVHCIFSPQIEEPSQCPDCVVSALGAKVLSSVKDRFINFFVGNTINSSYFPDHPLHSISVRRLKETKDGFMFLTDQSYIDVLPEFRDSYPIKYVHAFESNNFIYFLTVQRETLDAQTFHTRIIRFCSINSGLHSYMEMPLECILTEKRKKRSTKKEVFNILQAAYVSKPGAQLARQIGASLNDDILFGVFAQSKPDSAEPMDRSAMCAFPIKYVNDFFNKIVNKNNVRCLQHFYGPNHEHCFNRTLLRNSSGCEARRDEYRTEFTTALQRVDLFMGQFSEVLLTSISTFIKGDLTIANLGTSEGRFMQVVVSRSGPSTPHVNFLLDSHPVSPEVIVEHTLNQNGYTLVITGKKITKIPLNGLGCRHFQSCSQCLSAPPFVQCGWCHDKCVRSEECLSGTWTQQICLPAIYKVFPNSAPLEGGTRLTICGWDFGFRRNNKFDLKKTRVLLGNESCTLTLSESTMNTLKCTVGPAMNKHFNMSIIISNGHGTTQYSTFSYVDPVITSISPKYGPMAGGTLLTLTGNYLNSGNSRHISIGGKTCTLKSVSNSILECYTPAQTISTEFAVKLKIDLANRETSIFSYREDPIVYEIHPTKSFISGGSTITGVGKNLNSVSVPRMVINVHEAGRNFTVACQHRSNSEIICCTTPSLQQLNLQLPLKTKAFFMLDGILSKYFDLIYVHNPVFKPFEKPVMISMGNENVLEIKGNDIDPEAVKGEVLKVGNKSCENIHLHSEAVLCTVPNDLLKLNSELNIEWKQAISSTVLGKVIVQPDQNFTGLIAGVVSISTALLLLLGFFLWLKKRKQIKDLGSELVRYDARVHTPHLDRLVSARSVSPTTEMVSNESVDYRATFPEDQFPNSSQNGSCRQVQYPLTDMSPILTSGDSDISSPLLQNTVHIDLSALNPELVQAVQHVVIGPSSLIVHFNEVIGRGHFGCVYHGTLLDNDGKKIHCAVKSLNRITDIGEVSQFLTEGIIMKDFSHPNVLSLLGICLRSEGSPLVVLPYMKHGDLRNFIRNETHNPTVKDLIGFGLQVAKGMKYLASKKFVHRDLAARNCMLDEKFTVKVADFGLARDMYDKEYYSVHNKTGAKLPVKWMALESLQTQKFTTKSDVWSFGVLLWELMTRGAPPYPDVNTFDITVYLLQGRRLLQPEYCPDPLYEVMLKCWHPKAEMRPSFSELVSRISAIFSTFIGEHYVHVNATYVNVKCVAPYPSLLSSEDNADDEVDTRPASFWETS
measurement type: pKd
Give bare numbers, as −log10 of the molar value.

stdin: Recorded pKd of ATCAGGCTGGATGGTAGCTCGGTCGGGGTGGGTGGGTTGGCAAGTCTGAT [SL1] , please.
stdout: 6.87
